B1: TPR 5TU (parent)
chain: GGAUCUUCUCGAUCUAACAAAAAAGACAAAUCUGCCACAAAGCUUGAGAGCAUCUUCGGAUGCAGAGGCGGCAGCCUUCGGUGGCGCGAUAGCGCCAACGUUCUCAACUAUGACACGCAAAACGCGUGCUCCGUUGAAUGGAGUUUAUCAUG

variants of: B1; test: polymerase ribozyme fitness, log enrichment relative to wild type (log ratio); higher = more active; in vitro selection for triplet polymerase activity
Fewer inactive variants are shown than the library holds.

Mutant Name	polymerase ribozyme fitness (log ratio)
C36G U44G G71U C96A C108G G140C	≤ -4.2
A23U U45C A66G C85U	≤ -4.2
A41C G59C C75U G83C	-2.72
U44A A91G U135C U144C	≤ -4.2
C116U U135A	-0.565
A37C C95A A138C G141C	≤ -4.2
U4G U9A C35A G48C U134G	≤ -4.2
G58U G59A	0.429
C8G U13C A16G A52G G83A U101G G126A	≤ -4.2
A115C C123A	-1.17
C10U A40G C105G	≤ -4.2
